- Tested on: NCI-H460
- Test name: NCI tumour cell line growth inhibition, 48 h
Activity calls are given as the source filed them. Rule as the data show it: active = GI50 up to about 1.1 µM and inactive = higher.
Below is a list of entries, each paired with its recorded GI50 value.

Guide cases for GI50, answers given:
CN(C)C1(C#N)CCC2(CC1)OCCO2; > 100 µM (inactive)
N#Cc1c(N2CCCC2)nsc1Nc1ccc(F)cc1; > 100 µM (inactive)
CC(=O)/C=C/C=C(\C)CC/C=C(\C)CC(C)C; 29.9 µM (inactive)
O=c1[nH]c(N/N=C\C(O)C(O)C(O)CO)nc2ccccc12 (stereo not given); > 100 µM (inactive)

Considering COc1ccc(C(=O)O)c2c(=O)c3cccnc3[nH]c12 , its GI50 with NCI-H460 was recorded as > 100 µM (inactive)

Test item CC(C)CNCCc1ccccn1 ; NCI-H460; reported GI50 was > 100 µM (inactive)

Item CCC(c1ccc(OC)cc1)C1NC(=S)NC1=O (stereo not given) was tested on NCI-H460; the reported GI50 is > 50 µM (inactive)

Item O=c1/c(=C/c2ccccn2)sc2nc3cc4c(cc3n12)OCCO4 was tested on NCI-H460; the reported GI50 is > 100 µM (inactive)

I looked up Cc1cc2nc3c(C#N)c4c(c(-c5ccc(Cl)cc5)n3c2cc1C)CCC4 and its GI50 for NCI-H460 was 43.2 µM (inactive)

Record CCCCCCCCCCCCCCCCCCNC(=O)OCC(CNS(=O)(=O)CCC[n+]1cccc2ccccc21)COC (stereo not given) has NCI-H460 GI50 equal to 1.34 µM (inactive)

###

- Test system: HCT-116
- Test name: NCI tumour cell line growth inhibition, 48 h
Activity calls are given as the source filed them. Cut-off read from the data, not from the text of the source: active = GI50 up to about 1.1 µM and inactive = higher.
Quantity name: GI50

Cc1cc2nc3c(C#N)c4c(c(-c5ccc(Cl)cc5)n3c2cc1C)CCC4; 18.7 µM (inactive)
C=C1C(=O)[C@]23C[C@H]1C[C@@H](O)[C@H]2[C@]1(COC3=O)[C@@H](OC(C)=O)CC[C@@](C)(COC(C)=O)[C@H]1C=O; 37 µM (inactive)
CCc1cccc(C(C)CC)c1NC(=O)CC1C(=O)Nc2ccccc2[S+]1[O-] (stereo not given); 31.3 µM (inactive)
CC(=O)NC(CCCCNCc1ccccc1)C(=O)NCc1ccccc1 (stereo not given); > 100 µM (inactive)
C[C@]12CC[C@H](O)CC1=CC[C@@H]1C2CC[C@]2(C)c3nn(-c4ccc(F)cc4)nc3CC12 (stereo not given in full); 67.3 µM (inactive)
C[N+]12CCCCC1C(CN1C(=O)Cc3c4ccccc4c(c4ccccc34)CC1=O)CCC2 (stereo not given); > 100 µM (inactive)
CCSc1c2ccccc2nc2c(OC)ccc(OC)c12; 20.1 µM (inactive)
c1ccc(Cc2cc(-c3ccccc3)[nH]n2)cc1; 25.9 µM (inactive)

For record CC(=O)OC1(C#N)CC2OC1C1NC21 (stereo not given) the listed GI50 is > 100 µM (inactive)

The reported value for O=C1C=CC=CC2CC=C[C@@H](O)C12 (stereo not given in full) in terms of GI50 is 13.2 µM (inactive)

###

- Test system: KM12
- Test name: NCI tumour cell line growth inhibition, 48 h
Calls of active or inactive are those of the source. No stated cut-off is given here; in the data, active = GI50 up to about 1.1 µM and inactive = higher.
Quantity name: GI50

NP(=O)(Oc1c2occc2cc2ccc(=O)oc12)N(CCCl)CCCl (stereo not given); > 100 µM (inactive)
COc1c2c(cc3c1C(=O)Cc1ccc4c(c1CN(C)CC3)OCO4)OCO2; > 100 µM (inactive)
CCC(O)CC1OC2(CCC1C)CC1OC(=O)/C=C\C(C)(O)C(O)C(C)C(O)C(OC3CC(OC)C(O)C(C)O3)C(O)C(C)(O)CCC/C=C/C3CC(C)COC3(O)CC(O2)C1C (stereo not given); 2.43 µM (inactive)
Cc1ccc(/C(O)=C/c2nc3ccccc3oc2=O)cc1; > 100 µM (inactive)
CC12CCC(=O)N1c1ccc([N+](=O)[O-])cc1N2 (stereo not given); > 100 µM (inactive)
C/C(=C1/N=C(c2cc([N+](=O)[O-])ccc2Cl)N(c2ccc(Br)cc2)C1=O)c1cc2ccccc2oc1=O; 21.8 µM (inactive)

So, CCOc1c(Br)cc(Br)cc1C=C(C#N)C#N ? Its GI50 was 5.93 µM (inactive)

Lab note: CCCN(CCC)c1c([N+](=O)[O-])cc(C(N)=O)cc1[N+](=O)[O-] gave GI50 of > 100 µM (inactive)

Sure, the documented GI50 for CCC/C(Cl)=N\OC(=O)Nc1ccc(Br)cc1 is 10.8 µM (inactive)

The molecule Cc1cc(O)nc(NNC(C#N)c2ccc([N+](=O)[O-])cc2)n1 (stereo not given) showed GI50 equal to 84.9 µM (inactive)
